Entry source: patent US20080255175A1

system: HT-29, Human Colorectal; test: Cell proliferation 96-welled in vitro MTT assay, HT-29; format: cell-based; details: 72 hr incubation, triplicate
measurementType: IC50 (µM)
Field format: number, assumed µM, no unit text.

Worked cases, answers included:
{"columns": ["compound", "unitSymbol", "IC50"],
 "data": [
  ["CC[C@@]1(OC(=O)CNC(=O)/C=C\\C(=O)O)C(=O)OCc2c1cc1n(c2=O)Cc2cc3c(CN(C)C)c(OS(=O)(=O)C(C)C)ccc3nc2-1", "µM", 14.3],
  ["CC[C@@]1(O)C(=O)OCc2c1cc1n(c2=O)Cc2cc3c(CN(C)C)c(O)ccc3nc2-1 [topotecan, Topotecan, reference compound]", "µM", 22.9],
  ["CCCS(=O)(=O)Oc1ccc2nc3c(cc2c1CN(C)C)Cn1c-3cc2c(c1=O)COC(=O)C2(CC)OC(=O)CNC(=O)/C=C\\C(=O)O (stereo not shown)", "µM", 50.8]
]}

Note: attention shifts to another entry.
query: Please supply the value of reported IC50 for the item CCC1(OC(=O)CNC(=O)/C=C\C(=O)O)C(=O)OCc2c1cc1n(c2=O)Cc2cc3ccccc3nc2-1 (stereo not shown)
result: 44.3
